System: Escherichia coli TOP10;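 also: peptides expressed intracellularly from a pBAD plasmid library in pooled LB shake-flask culture, induced with 0.3% L-arabinose, DNA abundance read by NGS, three biological replicates, DESeq2 with apeglm shrinkage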
Assay Protocol: shrunken log2 fold change of peptide-encoding DNA abundance (4.5 h post-induction vs induction); higher = less antimicrobial activity (less host growth inhibition)
Applied Conditions: time post-induction: 4.5 h; library: site-saturation at positions 5, 18, 19, 20
Measured Endpoint: shrunken log2 fold change
Give bare numbers.

Field: example entries. Status: answers known.
Chain Sequence: RRIRWRPPRLPRPRPRPCSCPRP
shrunken log2 fold change: 0.0968
--
Chain Sequence: RRIRKRPPRLPRPRPRPAKEPRP
shrunken log2 fold change: -0.0233
--
Chain Sequence: RRIRYRPPRLPRPRPRPLAFPRP
shrunken log2 fold change: -0.827
--
Chain Sequence: RRIRERPPRLPRPRPRPHMVPRP
shrunken log2 fold change: -0.174
--
Chain Sequence: RRIRKRPPRLPRPRPRPVCYPRP
shrunken log2 fold change: 0.242
--
Chain Sequence: RRIRGRPPRLPRPRPRPMSEPRP
shrunken log2 fold change: 0.286
--
Chain Sequence: RRIRPRPPRLPRPRPRPFYHPRP
shrunken log2 fold change: -0.547
--
Chain Sequence: RRIRWRPPRLPRPRPRPVLDPRP
shrunken log2 fold change: 0.0956

Provide the reported shrunken log2 fold change of each entry below, same order.
1. RRIRMRPPRLPRPRPRPFWRPRP
2. RRIRTRPPRLPRPRPRPSLMPRP
3. RRIRKRPPRLPRPRPRPSCGPRP

Solution:
1: 0.463; 2: 0.0356; 3: 0.817
